// provenance: patent US20240066131A1

Molecular target: T1, human ferroportin (SLC40A1) fused in frame with GFP, stably expressed in HEK293 cells (human, UniProt Q9NP59 1-571)
T1 sequence (looked up): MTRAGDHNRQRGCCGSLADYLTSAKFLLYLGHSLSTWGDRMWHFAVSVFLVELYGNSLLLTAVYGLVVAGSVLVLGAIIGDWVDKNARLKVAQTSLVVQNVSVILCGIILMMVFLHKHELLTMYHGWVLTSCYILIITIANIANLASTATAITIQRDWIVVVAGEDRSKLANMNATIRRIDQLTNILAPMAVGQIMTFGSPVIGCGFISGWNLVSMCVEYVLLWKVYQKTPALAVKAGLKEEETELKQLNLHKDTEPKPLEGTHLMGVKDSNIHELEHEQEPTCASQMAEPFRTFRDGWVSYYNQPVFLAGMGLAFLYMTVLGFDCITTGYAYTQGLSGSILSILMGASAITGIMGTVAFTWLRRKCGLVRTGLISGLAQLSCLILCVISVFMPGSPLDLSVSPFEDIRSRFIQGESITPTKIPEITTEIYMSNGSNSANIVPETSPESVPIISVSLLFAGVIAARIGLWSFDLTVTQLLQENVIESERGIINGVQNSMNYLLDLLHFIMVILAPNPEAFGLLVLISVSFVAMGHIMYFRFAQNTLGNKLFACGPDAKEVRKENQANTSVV
Experiment: cell-based or functional assay
Starred links: 1 amine or outer side, 2 acyl side, 3 side chain; linkers in the order of their positions; H or OH if unused. Non-standard residues stand in square brackets, D forms with d. Groups on a side chain read outwards from the residue. *: point of attachment. Tet2 = (S)-2-amino-4-(1H-tetrazol-5-yl)butanoic acid, O=C([C@H](CCc1nn[nH]n1)N[*:1])[*:2]; Dip = N[C@H](C(=O)O)C(c1ccccc1)c1ccccc1; Palmitoyl = CCCCCCCCCCCCCCCC(=O)*; β3hF = N[C@H](CC(=O)O)Cc1ccccc1; Isovaleryl = CC(C)CC(=O)*; (Me)Leu = methyl-leucine; Ahx = NCCCCCC(=O)O
Assay Readout: FPN EC50 (nM)
Write it as a number; the unit nM goes unstated.

// FPN EC50 lookup, binder = Isovaleryl-[Tet2]TH[Dip]PAIK(Ac)[β3hF][dK]A-NH2 (SMILES CC[C@H](C)[C@H](NC(=O)[C@H](C)NC(=O)[C@@H]1CCCN1C(=O)[C@@H](NC(=O)[C@H](Cc1c[nH]cn1)NC(=O)[C@@H](NC(=O)[C@H](CCc1nn[nH]n1)NC(=O)CC(C)C)[C@@H](C)O)C(c1ccccc1)c1ccccc1)C(=O)N[C@@H](CCCCNC(C)=O)C(=O)N[C@H](CC(=O)N[C@H](CCCCN)C(=O)N[C@@H](C)C(N)=O)Cc1ccccc1) [Isovaleric Acid-[Tet2]-T-H-[Dpa]-P-A-I-[Lys(Ac)]-[bhPhe]-[(D)Lys]-A-NH2] , result: 117

// FPN EC50 lookup, binder = Isovaleryl-ETH[Dip]P[DiethylGly]IK([Ahx-Palmitoyl])[β3hF]-NH2 [Isovaleric Acid-E-T-H-[Dpa]-P-[DiethylGly]-I-[Lys(Ahx_Palm)]-[bhPhe]-NH2] , result: 69.7

// FPN EC50 lookup, binder = Isovaleryl-LTH[Dip]P[(Me)Leu]IK([Ahx-Palmitoyl])L-NH2 [Isovaleric Acid-L-T-H-[Dpa]-P-[(Me)Leu]-I-[Lys(Ahx_Palm)]-L-NH2] , result: 2760
